- assayComment: Pharmacokinetics (oral bioavailability) in C57BL/6 mice
- conditionContext: mouse, in vivo, IV 1 mg/kg, PO 30 mg/kg
Structures can show the parent of a compound that is named as a salt.

# compound, bioavailability
records = [
    ("OCC(CO)NCc1ccc(-c2ccc(-c3cc4nc(O[C@@H]5CO[C@H]6[C@@H]5OC[C@H]6O)[nH]c4cc3Cl)cc2)cc1", "< 10%"),
    ("OC[C@@H](O)[C@@H](O)[C@H](O)[C@@H](O)CNCc1ccc(-c2ccc(-c3nc4nc(O[C@@H]5CO[C@H]6[C@@H]5OC[C@H]6O)[nH]c4cc3Cl)cc2)cc1", "< 1%"),
    ("O=C(NCC[N+]12CCN(CC1)CC2)c1ccc(-c2ccc(-c3cc4nc(O[C@@H]5CO[C@H]6[C@@H]5OC[C@H]6O)[nH]c4cc3Cl)cc2)cc1 [Compound 32, formate]", "< 1%"),
]

----------
- assayTarget: Recombinant AMPK α1/β1/γ1 complex (Homo sapiens (Human), UniProt Q13131+Q9Y478)
- Sequence (Q13131 whole entry): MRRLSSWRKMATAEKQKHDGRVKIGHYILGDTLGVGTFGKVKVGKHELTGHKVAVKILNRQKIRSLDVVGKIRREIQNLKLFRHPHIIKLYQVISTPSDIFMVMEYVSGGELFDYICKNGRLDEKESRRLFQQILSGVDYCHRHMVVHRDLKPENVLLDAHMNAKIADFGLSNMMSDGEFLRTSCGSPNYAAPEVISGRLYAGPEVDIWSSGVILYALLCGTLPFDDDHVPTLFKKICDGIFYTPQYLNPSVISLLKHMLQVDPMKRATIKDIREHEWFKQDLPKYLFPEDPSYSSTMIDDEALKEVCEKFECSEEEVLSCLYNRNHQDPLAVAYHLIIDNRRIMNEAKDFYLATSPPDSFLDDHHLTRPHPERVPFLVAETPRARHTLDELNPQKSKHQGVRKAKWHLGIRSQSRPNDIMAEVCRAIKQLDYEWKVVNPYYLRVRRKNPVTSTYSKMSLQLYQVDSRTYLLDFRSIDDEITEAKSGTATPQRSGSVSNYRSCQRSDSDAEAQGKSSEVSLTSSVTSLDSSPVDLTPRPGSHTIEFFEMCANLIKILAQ
- Sequence (Q9Y478 whole entry): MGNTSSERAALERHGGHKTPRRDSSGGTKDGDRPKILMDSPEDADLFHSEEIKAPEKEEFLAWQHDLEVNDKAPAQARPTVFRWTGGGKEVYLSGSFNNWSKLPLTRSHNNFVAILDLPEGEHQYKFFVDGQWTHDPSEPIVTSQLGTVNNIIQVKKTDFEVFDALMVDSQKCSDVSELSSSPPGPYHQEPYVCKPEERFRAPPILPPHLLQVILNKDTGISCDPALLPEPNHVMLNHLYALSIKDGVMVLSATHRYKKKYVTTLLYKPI
- Sequence (P54619 whole entry partner): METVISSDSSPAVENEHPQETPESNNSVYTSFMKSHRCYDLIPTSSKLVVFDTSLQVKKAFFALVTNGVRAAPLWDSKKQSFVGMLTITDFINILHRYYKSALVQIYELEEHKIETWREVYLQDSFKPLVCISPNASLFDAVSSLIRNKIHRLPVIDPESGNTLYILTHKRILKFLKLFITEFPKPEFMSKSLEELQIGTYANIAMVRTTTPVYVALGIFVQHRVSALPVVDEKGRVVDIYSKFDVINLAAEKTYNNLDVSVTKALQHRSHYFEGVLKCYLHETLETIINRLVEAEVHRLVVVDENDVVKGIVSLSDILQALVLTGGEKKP
- assayComment: In vitro pAMPK1 kinase activation assay (ADP-Glo, SAMS peptide)
- conditionContext: AMPK α1/β1/γ1 pre-activated with CAMKK2; 12-point curve; 15 min compound incubation
pEC50: −log10 of the molar value.
Label satisfied when pEC50 >= 9; otherwise not satisfied.

# molecule, assayTarget, categoryLabel
measured = [
    ("O=C(NCCOCCO)c1ccc(-c2ccc(-c3cc4nc(O[C@@H]5CO[C@H]6[C@@H]5OC[C@H]6O)[nH]c4cc3Cl)cc2)c(O)c1", "Recombinant AMPK α1/β1/γ1 complex (Homo sapiens (Human), UniProt Q13131+Q9Y478)", "satisfied"),
    ("OCCOCCNCc1ccc(-c2ccc(-c3cc4nc(O[C@@H]5CO[C@H]6[C@@H]5OC[C@H]6O)[nH]c4cc3Cl)cc2)c(O)c1", "Recombinant AMPK α1/β1/γ1 complex (Homo sapiens (Human), UniProt Q13131+Q9Y478)", "satisfied"),
    ("O=C(CCCNCc1ccc(-c2ccc(-c3cc4nc(O[C@@H]5CO[C@H]6[C@@H]5OC[C@H]6O)[nH]c4cc3Cl)cc2)cc1)NC(CO)CO", "Recombinant AMPK α1/β1/γ1 complex (Homo sapiens (Human), UniProt Q13131+Q9Y478)", "not satisfied"),
    ("OCC1CCN(Cc2ccc(-c3ccc(-c4cc5nc(O[C@@H]6CO[C@H]7[C@@H]6OC[C@H]7O)[nH]c5cc4Cl)cc3)cc2)CC1", "Recombinant AMPK α1/β1/γ1 complex (Homo sapiens (Human), UniProt Q13131+Q9Y478)", "not satisfied"),
    ("O=S(=O)(NC[C@H](O)[C@@H](O)[C@H](O)[C@H](O)CO)c1ccc(-c2ccc(-c3nc4nc(O[C@@H]5CO[C@H]6[C@@H]5OC[C@H]6O)[nH]c4cc3Cl)cc2)cc1", "Recombinant AMPK α1/β1/γ1 complex (Homo sapiens (Human), UniProt Q13131+Q9Y478)", "satisfied"),
]

----------
We begin with a simple list: items and their reported Papp A→B at 2 h, 2 μM.
- assayComment: in vitro
- conditionContext: human, Caco-2, pH 7.4
testReadout: Papp A→B at 2 h, 2 μM (×10⁻⁶ cm/s)

# molecule, testReadout, censorSymbol, endpointValue
rows = [
    ("OC[C@@H](O)[C@@H](O)[C@H](O)[C@@H](O)CNCc1ccc(-c2ccc(-c3nc4nc(O[C@@H]5CO[C@H]6[C@@H]5OC[C@H]6O)[nH]c4cc3Cl)cc2)cc1", "Papp A→B at 2 h, 2 μM", "<", 0.48),
    ("COCCc1ccc(OCC(O)CNC(C)C)cc1 (centres unmarked) [Metoprolol, metoprolol, reference compound]", "Papp A→B at 2 h, 2 μM", "=", 16.4),
    ("O=C(NC[C@H](O)[C@@H](O)[C@H](O)[C@H](O)CO)c1ccc(-c2ccc(-c3nc4nc(O[C@@H]5CO[C@H]6[C@@H]5OC[C@H]6O)[nH]c4cc3Cl)cc2)cc1", "Papp A→B at 2 h, 2 μM", "<", 0.25),
    ("C[C@H]1O[C@@H](O[C@H]2[C@@H](O)C[C@H](O[C@H]3[C@@H](O)C[C@H](O[C@H]4CC[C@@]5(C)[C@H](CC[C@@H]6[C@@H]5C[C@@H](O)[C@]5(C)[C@@H](C7=CC(=O)OC7)CC[C@]65O)C4)O[C@@H]3C)O[C@@H]2C)C[C@H](O)[C@@H]1O [Digoxin, reference compound]", "Papp A→B at 2 h, 2 μM", "<", 0.03),
    ("O=C(NCCOCCO)c1ccc(-c2ccc(-c3cc4nc(O[C@@H]5CO[C@H]6[C@@H]5OC[C@H]6O)[nH]c4cc3Cl)cc2)cc1", "Papp A→B at 2 h, 2 μM", "=", 0.115),
]

----------
We begin with a simple list: items and their reported recovery at 2 h, 2 μM.
- assayComment: in vitro
- conditionContext: human, Caco-2, pH 7.4, Mean Recovery B to A

# molecule, recovery at 2 h, 2 μM [%]
measured = [
    ("O=C(NC[C@H](O)[C@@H](O)[C@H](O)[C@H](O)CO)c1ccc(-c2ccc(-c3nc4nc(O[C@@H]5CO[C@H]6[C@@H]5OC[C@H]6O)[nH]c4cc3Cl)cc2)cc1 [Compound 1]", 89.9),
    ("OC[C@@H](O)[C@@H](O)[C@H](O)[C@@H](O)CNCc1ccc(-c2ccc(-c3nc4nc(O[C@@H]5CO[C@H]6[C@@H]5OC[C@H]6O)[nH]c4cc3Cl)cc2)cc1 [Compound 4]", 102),
    ("O=C(NCCOCCO)c1ccc(-c2ccc(-c3cc4nc(O[C@@H]5CO[C@H]6[C@@H]5OC[C@H]6O)[nH]c4cc3Cl)cc2)cc1 [Compound 31]", 97.8),
    ("C[C@H]1O[C@@H](O[C@H]2[C@@H](O)C[C@H](O[C@H]3[C@@H](O)C[C@H](O[C@H]4CC[C@@]5(C)[C@H](CC[C@@H]6[C@@H]5C[C@@H](O)[C@]5(C)[C@@H](C7=CC(=O)OC7)CC[C@]65O)C4)O[C@@H]3C)O[C@@H]2C)C[C@H](O)[C@@H]1O [Digoxin, reference compound]", 92.2),
]

----------
We begin with a simple list: items and their reported pEC50.
- assayTarget: Recombinant AMPK α1/β1/γ1 complex (Homo sapiens (Human), UniProt Q13131+Q9Y478)
- assayComment: In vitro pAMPK1 kinase activation assay (ADP-Glo, SAMS peptide)
- conditionContext: AMPK α1/β1/γ1 pre-activated with CAMKK2; 12-point curve; 15 min compound incubation
pEC50: −log10 of the molar value.

# molecule, assayTarget, censorSymbol, pEC50
data = [
    ("CC(NC[C@H](O)[C@@H](O)[C@H](O)[C@H](O)CO)c1ccc(-c2ccc(-c3nc4nc(O[C@@H]5CO[C@H]6[C@@H]5OC[C@H]6O)[nH]c4cc3Cl)cc2)cc1 (some centres unmarked)", "Recombinant AMPK α1/β1/γ1 complex (Homo sapiens (Human), UniProt Q13131+Q9Y478)", "=", 8.88),
    ("O=C(NC[C@H](O)[C@@H](O)[C@H](O)[C@H](O)CO)c1ccc(-c2ccc(-c3nc4nc(O[C@@H]5CO[C@H]6[C@@H]5OC[C@H]6O)[nH]c4cc3Cl)cc2)cc1", "Recombinant AMPK α1/β1/γ1 complex (Homo sapiens (Human), UniProt Q13131+Q9Y478)", "=", 10.30),
    ("O=S(=O)(O)c1ccc(-c2ccc(-c3nc4nc(O[C@@H]5CO[C@H]6[C@@H]5OC[C@H]6O)[nH]c4cc3Cl)cc2)cc1", "Recombinant AMPK α1/β1/γ1 complex (Homo sapiens (Human), UniProt Q13131+Q9Y478)", "=", 8.74),
    ("O=C(NC[C@H](O)[C@@H](O)[C@H](O)[C@H](O)CO)c1ccc(-c2ccc(-c3cc4nc(O[C@@H]5CO[C@H]6[C@@H]5OC[C@H]6O)[nH]c4cc3Cl)cc2)cc1", "Recombinant AMPK α1/β1/γ1 complex (Homo sapiens (Human), UniProt Q13131+Q9Y478)", "=", 9.19),
    ("O=P(O)(O)c1ccc(-c2ccc(-c3nc4nc(O[C@H]5CO[C@H](CO)[C@H]5O)[nH]c4cc3Cl)cc2)cc1", "Recombinant AMPK α1/β1/γ1 complex (Homo sapiens (Human), UniProt Q13131+Q9Y478)", "<", 5.00),
]

----------
- assayComment: in vitro
- conditionContext: human, Caco-2, pH 7.4, Mean Recovery A to B
- Experimental: Caco-2 cells purchased from ATCC were seeded onto […] (PET) in 96-well BD Insert plates at 1×10^5 cells/cm^2, and refreshed medium every 4-5 days until to the 21st to 28th day for confluent cell monolayer formation. The transport buffer in the study was HBSS with 10 mM HEPES at pH 7.40±0.05. Test compounds were tested at 2 μM bi-directionally in duplicate. […]

# compound, censorSymbol, recovery at 2 h, 2 μM [%]
data = [
    ("OC[C@@H](O)[C@@H](O)[C@H](O)[C@@H](O)CNCc1ccc(-c2ccc(-c3nc4nc(O[C@@H]5CO[C@H]6[C@@H]5OC[C@H]6O)[nH]c4cc3Cl)cc2)cc1", "<", 99.6),
    ("O=C(NC[C@H](O)[C@@H](O)[C@H](O)[C@H](O)CO)c1ccc(-c2ccc(-c3nc4nc(O[C@@H]5CO[C@H]6[C@@H]5OC[C@H]6O)[nH]c4cc3Cl)cc2)cc1", "<", 82.6),
    ("C[C@H]1O[C@@H](O[C@H]2[C@@H](O)C[C@H](O[C@H]3[C@@H](O)C[C@H](O[C@H]4CC[C@@]5(C)[C@H](CC[C@@H]6[C@@H]5C[C@@H](O)[C@]5(C)[C@@H](C7=CC(=O)OC7)CC[C@]65O)C4)O[C@@H]3C)O[C@@H]2C)C[C@H](O)[C@@H]1O [Digoxin, reference compound]", "<", 90.8),
    ("O=C(NCCOCCO)c1ccc(-c2ccc(-c3cc4nc(O[C@@H]5CO[C@H]6[C@@H]5OC[C@H]6O)[nH]c4cc3Cl)cc2)cc1", "=", 83.2),
    ("COCCc1ccc(OCC(O)CNC(C)C)cc1 (centres unmarked) [Metoprolol, metoprolol, reference compound]", "=", 90),
]
